Numbers sourced from ChEMBL document CHEMBL4392833.

assay: Growth inhibition of human A549 cells by MTT assay; assay type: cell-based; settings: A549 cells
Each entry below carries its recorded GI50.
The response must be a number in µg/mL with no trailing unit.

Cc1nc(C)c(-c2nn(-c3ccc(F)cc3)cc2C2CC(c3cc(Br)ccc3O)=NN2)s1 (stereo not given)    81.4

Challenge: Which GI50 is reported for this compound? Cc1nc(C)c(-c2nn(-c3ccc(F)cc3)cc2C2CC(c3c(O)cc(C)c(Cl)c3C)=NN2)s1 (stereo not given)
Response given: 43.4

* * *

test: Growth inhibition of human HeLa cells by MTT assay; assay type: cell-based; details: HeLa cells
measure: log10 of GI50 (log10 of the value in µg/mL)
In our notation, the value equals log10 of GI50 in µg/mL.

A selection of reference data follows.
Cc1nc(C)c(-c2nn(-c3ccc(F)cc3)cc2C2CC(c3cc(Br)ccc3O)=NN2)s1 (centres undefined)    1.33
Cc1nc(C)c(-c2nn(-c3ccc(F)cc3)cc2/C=C/C(=O)c2c(O)cc(C)c(Cl)c2C)s1    1.77
Cc1nc(C)c(-c2nn(-c3ccc(F)cc3)cc2/C=C/C(=O)c2cc(Br)ccc2O)s1    0.69
Cc1nc(C)c(-c2nn(-c3ccc(F)cc3)cc2/C=C/C(=O)c2cc(Cl)c(C)cc2O)s1    1.54
Cc1nc(C)c(-c2nn(-c3ccc(F)cc3)cc2C2CC(c3c(O)cc(C)c(Cl)c3C)=NN2)s1 (centres undefined)    1.40

Challenge: Which log10 of GI50 is reported for this molecule? Cc1ccc(O)c(C(=O)/C=C/c2cn(-c3ccc(F)cc3)nc2-c2sc(C)nc2C)c1
Response given: 1.48

Challenge: Which log10 of GI50 is reported for this molecule? Cc1nc(C)c(-c2nn(-c3ccc(F)cc3)cc2-c2cc(=O)c3cc(Cl)c(C)cc3o2)s1
Response given: 1.22
